B1: C10orf62 (parent)
chain: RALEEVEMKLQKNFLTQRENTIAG

# Variants of: B1
# Test method notes: protein stability index of a GFP-peptide fusion (GPS, HEK-293T) (PSI 1-6); higher = more stable;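 also: lentivirally expressed fusions sorted by FACS into six bins by GFP to DsRed ratio, PSI derived from sequencing read proportions per bin multiplied by bin number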
# Measurement context: c terminus: a fixed tail appended
Property name: protein stability index
One number for each entry.

Some solved entries appear below for comparison.
- A2Y: 2.98
- E4W: 1.92
- Q11V: 2.82
- M8T: 4.23
- E5R: 3.12
- R18V: 2.35

For the 5 variants below, give their protein stability index values.
1. V6I
2. E5D
3. E19Y
4. V6Q
5. Q11W

OUTPUT:
2.52
3.67
1.81
3.93
1.98

Please report protein stability index for every entry that follows.
1. L3E
2. G24K
3. K12A

OUTPUT:
1. 5.08
2. 4.19
3. 3.77

Batch: protein stability index for all items listed.
1. E5F
2. Q11C
3. V6G
4. L10Y

OUTPUT:
1: 2.11; 2: 3.52; 3: 4.3; 4: 3.67

Source listed as the supplement of paper PMC10567573.
